target: UniProt Q8NER1; test: Human VR1 antagonist assay (Ca2+ imaging); details: Ca2+ imaging (fura-2/AM) in cells highly expressing human VR1; agonist stimulation
Sequence (Q8NER1 whole entry): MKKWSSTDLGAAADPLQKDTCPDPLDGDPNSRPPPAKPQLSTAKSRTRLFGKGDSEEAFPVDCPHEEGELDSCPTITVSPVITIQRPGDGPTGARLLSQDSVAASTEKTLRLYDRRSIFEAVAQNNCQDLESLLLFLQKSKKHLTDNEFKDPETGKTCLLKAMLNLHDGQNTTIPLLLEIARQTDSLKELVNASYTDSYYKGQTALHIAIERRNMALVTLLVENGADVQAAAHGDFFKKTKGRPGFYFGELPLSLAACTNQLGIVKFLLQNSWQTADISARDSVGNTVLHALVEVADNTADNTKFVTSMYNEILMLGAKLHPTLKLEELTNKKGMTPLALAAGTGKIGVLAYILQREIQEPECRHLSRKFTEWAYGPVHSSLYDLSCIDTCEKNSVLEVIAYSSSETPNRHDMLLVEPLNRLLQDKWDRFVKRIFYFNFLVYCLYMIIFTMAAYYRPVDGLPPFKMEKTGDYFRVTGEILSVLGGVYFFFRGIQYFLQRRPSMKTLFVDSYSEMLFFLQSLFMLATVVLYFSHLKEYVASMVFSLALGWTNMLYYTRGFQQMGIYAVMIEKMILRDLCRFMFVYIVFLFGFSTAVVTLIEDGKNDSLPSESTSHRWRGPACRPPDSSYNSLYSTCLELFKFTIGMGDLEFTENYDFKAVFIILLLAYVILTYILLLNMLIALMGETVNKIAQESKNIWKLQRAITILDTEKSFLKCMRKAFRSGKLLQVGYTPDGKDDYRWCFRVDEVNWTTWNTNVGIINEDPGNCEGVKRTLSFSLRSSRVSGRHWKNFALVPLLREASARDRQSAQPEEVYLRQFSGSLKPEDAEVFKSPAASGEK
VALUE_KIND: IC50 (nM)

See these solved cases before continuing.
| COMPOUND | RESULT_UNITS | TEST_RESULT |
| --- | --- | --- |
| Cc1ncc([C@@H](C)NC(=O)c2ccc3cc(C(C)(C)C)ccc3c2)cc1Cl | nM | 271 |
| Cc1ccc([C@@H](C)NC(=O)c2ccc3cc(C(C)(C)C)ccc3n2)cn1 | nM | 426 |
| Cc1ccc([C@@H](C)NC(=O)c2ccc3cc(C(C)(C)C)ccc3c2)cn1 | nM | 96 |

a. Cc1ccc(C(C)NC(=O)c2ccc3cc(C(C)(C)C)ccc3c2)cn1 (stereo not drawn)
b. Cc1cc(CNC(=O)c2ccc3cc(C(C)(C)C)ccc3n2)ccn1 [Example D1]
Lab log: flag the item ( a or b ) with the smaller IC50 figure. Your answer should be the label of the entry you select.
a
(a: 67.8 nM, b: 231 nM)

1. Cc1cc([C@@H](C)NC(=O)c2ccc3cc(C(C)(C)C)ccc3c2)ccn1
2. CC[C@@H](NC(=O)c1ccc2cc(C(C)(C)C)ccc2c1)c1ccc(C)nc1
Looking at recorded values for IC50, does 1 or 2 come in lower? Lab log: write the label of the selected item as the result.
1

A. COc1cc(CNC(=O)c2ccc3cc(C(C)(C)C)ccc3c2)ccn1
B. Cc1cc(CNC(=O)c2ccc3cc(C(C)(C)C)ccc3c2)c(C)cn1
Param pair: A , B . Output: the one whose IC50 is numerically greater. Indicate your choice by writing its label.
A
(A: 203 nM, B: 32.5 nM)
